B1: tRNA (parent)
chain: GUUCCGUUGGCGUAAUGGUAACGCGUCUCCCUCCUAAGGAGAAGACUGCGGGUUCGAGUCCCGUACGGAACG

Variants of: B1
test-details: yeast fitness relative to wild type (ratio to wild type); higher = fitter; tRNA-Arg(CCU), competitive growth, 37 C, YPD
Fewer inactive variants are shown than the library holds.

mutation | comparison-operator | yeast fitness
C4A G18C C33G | = | 0.591
U7C A21U C30U C33G A70U | ≤ | 0.5
C29U A43U G52C U59A | ≤ | 0.5
A15U U19A A20G A40U A43U C60G C62U A65G | ≤ | 0.5
C11G A15C C34U A65C | ≤ | 0.5
U8G G48A C49G | ≤ | 0.5
A20C G56A A65G C66U | = | 0.562
U28A U64C | = | 0.834
G10C G18C A45C | ≤ | 0.5
G12A C33U A36C C62U | = | 0.553
U8C A37G | = | 0.657
U8C C11U G18A A20U C22G C31G | ≤ | 0.5
U13C G25C U28G G58A C60G | = | 0.622
A14C G44C | = | 0.577
A15G C60G A69C | = | 0.585
C30U G56A | = | 0.942
C4G C11G U19C G23C U28G C61G | ≤ | 0.5
G50A G51C A65C | ≤ | 0.5
C4A C31G A45G G50C | = | 0.576
G17A C24G C27G C62U G67A | ≤ | 0.5
A15G G67A A69C | = | 0.767
C4U U8C A36G A40C G44C | ≤ | 0.5
